Entries and their IC50 values follow.
Target: p97 (Homo sapiens)
Sequence (P55072 2-806 limits assumed): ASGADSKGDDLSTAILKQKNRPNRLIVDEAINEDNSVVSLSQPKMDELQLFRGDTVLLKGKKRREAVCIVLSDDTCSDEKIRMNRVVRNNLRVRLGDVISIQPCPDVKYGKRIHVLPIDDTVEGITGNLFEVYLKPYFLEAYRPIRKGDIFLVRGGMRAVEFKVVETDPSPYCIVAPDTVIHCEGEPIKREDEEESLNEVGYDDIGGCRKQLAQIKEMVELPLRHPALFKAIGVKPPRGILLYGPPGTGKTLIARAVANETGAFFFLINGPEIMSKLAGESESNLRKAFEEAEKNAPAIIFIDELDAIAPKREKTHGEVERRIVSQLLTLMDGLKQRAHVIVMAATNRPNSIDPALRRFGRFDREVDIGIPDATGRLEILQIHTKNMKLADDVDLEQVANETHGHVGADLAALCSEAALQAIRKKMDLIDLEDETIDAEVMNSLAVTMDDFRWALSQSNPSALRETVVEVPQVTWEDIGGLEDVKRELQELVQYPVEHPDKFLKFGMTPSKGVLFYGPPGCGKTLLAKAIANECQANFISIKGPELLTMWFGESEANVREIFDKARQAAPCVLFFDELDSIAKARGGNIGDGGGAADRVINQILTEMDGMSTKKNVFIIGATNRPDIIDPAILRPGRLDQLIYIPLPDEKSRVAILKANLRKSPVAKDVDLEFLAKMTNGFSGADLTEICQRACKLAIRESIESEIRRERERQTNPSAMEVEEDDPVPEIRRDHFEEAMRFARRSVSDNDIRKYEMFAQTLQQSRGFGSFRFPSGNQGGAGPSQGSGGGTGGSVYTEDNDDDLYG
Assay: p97 ATPase assay (Kinase Glo Plus; biomol green for compounds that interfere with luciferase)
Format: biochemical
Settings: purified p97, ATP, 60 min room temperature; mean +/- standard error
Lab book: enter the figure in µM, no units written.

Prompt: Entry Fc1ccc(CNc2nc(-c3ccc(Cl)cc3)nc3ccccc23)cc1 : reported IC50 = ?
Response: 8

Prompt: Try this compound too: COc1ccc(-c2nc(NCc3ccc(F)cc3)c3ccccc3n2)cc1
Response: 7.8

Prompt: Do the same for Fc1cccc2c(NCc3ccccc3)nc(NCc3ccccc3)nc12 please
Response: 3.1

Prompt: Record: Fc1ccc(Nc2nc(NCc3ccccc3)c3ccccc3n2)cc1
Response: 3.8

Prompt: What would you report for Clc1cc(Cl)cc(Nc2nc(NCc3ccccc3)c3ccccc3n2)c1 ?
Response: 8.2
